System: SR leukemia
Experiment: NCI-60 one-dose screen, 48 h (100 = growth as untreated, 0 = no growth, -100 = all killed)
Settings: 10 µM
Description: Growth inhibition of the SR human tumor cell line is measured as a screen for anti-cancer activity. Cells are grown in 96 well plates and exposed to the test compound for 48 hours. Compounds are tested at a single concentration, which is 10^-5 M for most compounds. The reported endpoint is percent growth (GI% or GIPRCNT), where numbers from 0 - 100% represent growth inhibition, and numbers from -100% - 0 represent cell death. For example, a value of 40 represents 60% growth inhibition. […]
The panel holds about 83,000 compounds, 20% with a hit somewhere; the sample as a whole holds those more often.
Label scheme, based on growth: bucket 1: < 10%; bucket 2: ≥ 10% and < 50%; bucket 3: ≥ 50%

compound	answerLabel
COc1ccc(-c2nc(-c3nc4ccc(OC)cc4[nH]3)c3ccccn23)cc1	bucket 2
O/N=C1\CCC2CCCCC2C1 (stereo not drawn)	bucket 3
COc1ccccc1Cn1cc2c(c1-c1ccccc1)CCc1cnoc1-2	bucket 2
O=C(c1ccccc1)C(Nc1ccccc1)c1ccccc1 (stereo not drawn)	bucket 3
O=NN(CCCl)C(=O)Nc1ccc(NC(=O)N(CCCl)N=O)cc1	bucket 1
N#CN1CC[C@H](C(=O)Nc2ncc(-c3ccccc3)s2)C1	bucket 1
COc1ccc(-c2nnc(N3CCN(C(=O)CN4CCN(c5ccc(Cl)cc5)CC4)CC3)nc2-c2ccc(OC)cc2)cc1	bucket 3
O=S(=O)(O)C1(O)CCCCC1	bucket 3
COc1cc([C@@H]2c3cc4c(cc3[C@H](SC(=N)N)[C@H]3COC(=O)[C@H]23)OCO4)cc(OC)c1OC	bucket 2
CCc1c(C)[nH]c(=O)c(C(N)=O)c1C#N	bucket 3
COc1cc(NS(C)(=O)=O)ccc1Nc1c2ccc(Cl)cc2nc2c(OC)cccc12	bucket 1
Fc1ccc(Nc2ccnc(N3CCN(c4ccnc5cc(Cl)ccc45)CC3)n2)cc1	bucket 2
CCCCc1ccc(NC(=O)N(CCCl)N=O)cc1	bucket 2
N#CC1C=Cc2c(ccc3ccccc23)N1C(=O)c1ccccc1 (stereo not drawn)	bucket 2
O=c1oc2c3ccc4cnccc4c3[nH]c2c2ccccc12	bucket 1
COc1cc(CSc2nc3ccc(C)cc3c(=O)n2-c2ccccc2)cc(OC)c1OC	bucket 2
C=CCOc1ccc2c(c1)CC=C1[C@@H]2CC[C@]2(C)C(=O)/C(=N/O)C[C@@H]12	bucket 2
COCCNCC(O)Cn1c2ccc(Cl)cc2c2cc(Cl)ccc21 (stereo not drawn)	bucket 1
Nc1nsc(C(=O)c2ccc(O)cc2)n1	bucket 3
COC(=O)CCCCCCCCC(C)c1ccc(C(C)=O)cc1 (stereo not drawn)	bucket 3
O=C(Nc1ccc(Oc2ccc(Nc3nc4ccccc4s3)cc2)cc1)Nc1ccc(Cl)c(Cl)c1	bucket 1
CC(=O)CS(C)(=O)=O	bucket 3

---

test system: MDA-MB-435 melanoma; assay: NCI-60 one-dose screen, 48 h; details: 10 µM
About 83,000 compounds went through this panel and 20% of them were active in at least one assay; those are over-represented in the sample as a whole. Calls of active or inactive are those of the source. How the source made its calls: active means growth percent below 10; inactive means the rest.
Outcome codes: Yes = active, No = inactive

compound	assayedSystem	answerLabel
CNC(=O)c1cc(Oc2ccc(NC(=O)Nc3ccc(Cl)c(OC(C)C)c3)c(F)c2)ccn1	MDA-MB-435 melanoma	No
CCOc1ccc(-n2cc(-c3ccc(N(C)C)cc3)[n+]3c2CCCCC3)cc1	MDA-MB-435 melanoma	No
Oc1cc(O)c(Br)cc1Br	MDA-MB-435 melanoma	No
O=S(=O)(NC1c2ccccc2Oc2ccccc21)c1ccccc1	MDA-MB-435 melanoma	No
COc1ccc(/C(=C/c2cc(OC)c(OC)cc2[N+](=O)[O-])C(=O)O)cc1	MDA-MB-435 melanoma	No
O=S(=O)(NCl)c1ccccc1	MDA-MB-435 melanoma	No
CCN(CC)CCOC(=O)c1ccc(N=Nc2ccc(O)c(OC)c2)cc1	MDA-MB-435 melanoma	No
CCOc1nc(-c2ccccc2)cc2c(O)c(C(=O)NCCCO)[nH]c(=O)c12	MDA-MB-435 melanoma	No
COc1cc(CSc2nc3ccc(C)cc3c(=O)n2Cc2ccccc2)cc(OC)c1OC	MDA-MB-435 melanoma	Yes
O=C(NCCc1nccs1)c1cnc2c(S)cccc2c1	MDA-MB-435 melanoma	No
C[C@]12CC[C@H]3[C@@H](CCC4=CC(=O)CC[C@@]43C)[C@@H]1CC[C@@H]2c1csc(N)n1	MDA-MB-435 melanoma	No
O=c1oc2cc(OS(=O)(=O)C3CC3)ccc2c2c1CCCCCC2	MDA-MB-435 melanoma	No
COc1cc(OC)cc(-c2n/c(=C\c3c(O)[nH]c4ccc(OC)cc34)cc3c2=Nc2ccccc2-3)c1	MDA-MB-435 melanoma	No
COCCOC(=O)NC(=O)Nc1ccc(/C(=N/O)c2ccc(Cl)cc2)cc1	MDA-MB-435 melanoma	Yes
Cc1cc(C#Cc2ccccc2)ccc1-n1c(/C=C/c2cc(O)ccc2O)nc2ccccc2c1=O	MDA-MB-435 melanoma	Yes
CCCCCCCC/C=C/CCCCCCCCC1=NCCN1CCO	MDA-MB-435 melanoma	No
Cc1ccc(S(=O)(=O)N2CCc3ccccc3CC2)cc1	MDA-MB-435 melanoma	No
CCCN(CCC)CCCNC(=O)c1cc2c(-c3ccc(OC)c(OC)c3)nn(C)c2s1	MDA-MB-435 melanoma	Yes
O=C(Nc1ccc(CN2CCOCC2)cc1)c1ccc(-c2cc(Cl)ccc2Cl)o1	MDA-MB-435 melanoma	Yes
COCCOC(=O)NC(=O)Nc1ccc(C(=O)c2ccc(Cl)cc2)cc1	MDA-MB-435 melanoma	Yes
CCOC(=O)c1cc2c(n1Cc1cc(OC)cc(OC)c1)-c1oncc1CC2	MDA-MB-435 melanoma	Yes
O=C(O)CN1C(=O)C=CC1=O	MDA-MB-435 melanoma	No
COc1cc([C@@H]2c3cc4c(cc3[C@H](SC(=N)N)[C@H]3COC(=O)[C@H]23)OCO4)cc(OC)c1OC	MDA-MB-435 melanoma	Yes
C#CCNCCN1C(=O)c2ccc3c4c(ccc(c24)C1=O)C(=O)N(CCNCC#C)C3=O	MDA-MB-435 melanoma	Yes
COc1cc(Cn2c(-c3ccccc3)cc3c2-c2oncc2CC3)cc(OC)c1	MDA-MB-435 melanoma	Yes
CCc1nn2c(-c3ccccc3)c(-c3cc(OC)c(OC)c(OC)c3)nc2s1	MDA-MB-435 melanoma	No
COc1cc(-c2cc(-c3cc(OC)c(OC)c(OC)c3)nc3nc(N)[nH]c(=O)c23)ccc1Oc1ccnc2cc(Cl)ccc12	MDA-MB-435 melanoma	Yes
O=C(O)CCCCSCCCCC(=O)O	MDA-MB-435 melanoma	No
C/C=C\COc1cc(C)c(Cl)cc1Cl	MDA-MB-435 melanoma	No
COc1cc(C2c3cc4c(cc3C(O)C(CO)C2CO)OCO4)cc(OC)c1OC (stereo unspecified)	MDA-MB-435 melanoma	Yes
COc1ccc(-c2csc(-c3cc(Cl)cc(Cl)c3Cl)n2)cc1	MDA-MB-435 melanoma	No
Cc1ccccc1C1=N[C@@H](Cc2ccccc2)C(=O)c2c(nc3ccccn23)N1	MDA-MB-435 melanoma	No
CCCCCCCOc1cccc(/C=C2/C(=O)N=C3SCCCN32)c1	MDA-MB-435 melanoma	No
COc1cc(NS(C)(=O)=O)ccc1Nc1c2ccc(Cl)cc2nc2c(OC)cccc12	MDA-MB-435 melanoma	No
Cn1c([N+](=O)[O-])cnc1/C=C1\Oc2ccc(Br)cc2C1=O	MDA-MB-435 melanoma	Yes
COc1cc(-c2nc3ccc(C)cc3[nH]2)ccc1OCc1nnc(-c2ccc(CC(C)C)cc2)o1	MDA-MB-435 melanoma	No
COc1ccc2oc(=O)cc(C3c4ccc([nH]4)C(c4cc(=O)oc5ccc(OC)cc45)c4ccc([nH]4)C(c4cc(=O)oc5ccc(OC)cc45)c4ccc([nH]4)C(c4cc(=O)oc5ccc(OC)cc45)c4ccc3[nH]4)c2c1 (stereo unspecified)	MDA-MB-435 melanoma	Yes
OC(CNC1CCCC1)Cn1c2ccccc2c2ccccc21 (stereo unspecified)	MDA-MB-435 melanoma	Yes
NS(=O)(=O)c1ccc(N2N=C(c3ccc(-c4ccccc4)cc3)CC2c2ccc(Cl)cc2)cc1 (stereo unspecified)	MDA-MB-435 melanoma	No
Nc1ccc(Sc2ccc3c4c2cccc4c(=O)n2c4ccccc4nc32)cc1	MDA-MB-435 melanoma	No
CCOC(=O)c1ccc(N(C=O)CCC(=O)CCl)cc1	MDA-MB-435 melanoma	Yes

---

tested on: RXF 393 renal; test: NCI-60 one-dose screen, 48 h; conditions: 10 µM
Compounds without any hit were thinned out: in the full panel of roughly 83,000, 20% have a hit. Calls of active or inactive are those of the source. Rule for the calls: active = growth percent below 10; inactive = the rest.
Outcome codes: 1 (yes) (active), 0 (no) (inactive)

compound	answerLabel
CC(C)C[C@H](NC(=O)Cn1ccc(Nc2ccccc2)cc1=O)B(O)O	1 (yes)
Nc1c(C(=O)NC2CCCCC2)sc2nc3c(cc12)C(=O)CCC3	0 (no)
COc1ccc(C(=O)n2nc(CC(=O)NCc3ccccc3)nc2N)cc1	0 (no)
COc1ccc(C(=O)/C=C/c2cc(-c3ccc(OC)c(OC)c3)n[nH]2)cc1OC	1 (yes)
CC(=O)c1ccc(NCn2nc(-c3ccc(Cl)cc3)oc2=S)cc1	0 (no)
COc1cccc2c1O/C(=C\c1ccc([N+](=O)[O-])s1)C2=O	0 (no)
COC(=O)[C@]12CC[C@@H](C)[C@H](C)[C@@H]1C1=CC[C@@H]3[C@@]4(C)CC(=O)[C@H](O)[C@@](C)(CO)[C@@H]4C(=O)C[C@@]3(C)[C@]1(C)CC2	1 (yes)
CN(C)CCCN(Cc1ccccc1O)C(=S)Nc1ccc(Cl)cc1	0 (no)
Cc1ccc(-c2cc(-c3cccc(Nc4ccnc5cc(Cl)ccc45)c3)nc3nc(N)[nH]c(=O)c23)cc1	0 (no)
O=C(CCCC(=O)N/N=C/c1cc(Cl)ccc1O)N/N=C\c1cc(Cl)ccc1O	0 (no)
COc1ccc(Cn2cc3c(c2-c2ccccc2)CC(C)(C)c2cnoc2-3)cc1	0 (no)
COc1cccc(C(=O)NNc2nc(N3CCOCC3)nc(N3CCN(C(c4ccccc4)c4ccccc4)CC3)n2)c1	0 (no)
CCOC(=O)c1sc(Nc2ncccn2)nc1-c1ccccn1	0 (no)
O=C(OCc1ncc(-c2ccc(C(F)(F)F)cc2)c(NC2CCCCCC2)n1)c1c(F)c(F)c(F)c(F)c1F	0 (no)
CCOC(=O)[C@@H](Cc1ccccc1)NC(=O)c1[nH]c2ccc(Cl)cc2c(=O)c1C	0 (no)
CCN(CC)CCn1c(=N)n(CC(O)c2ccc(Cl)c(Cl)c2)c2ccccc21 (configuration not stated)	0 (no)
NC(=O)C12C(=O)NC(=O)C1(C(=O)O)C21CCCC1 (configuration not stated)	0 (no)
O=S(=O)(NC1c2ccccc2Oc2ccccc21)c1cc(Cl)ccc1Cl	0 (no)
FC(F)(F)c1ccc(-c2cnc(Cl)nc2NC2CCCCCC2)cc1	0 (no)
O=C(Nc1ccc(OCc2nnc(-c3ccccc3)o2)c(F)c1)Nc1ccc(Cl)c(Cl)c1	0 (no)
O=C(NNc1nc(N2CCCC2)nc(N2CCCC2)n1)c1ccccc1	0 (no)
CC[C@@]1(C(N)=O)CC2C=CC1C2 (some centres not stated)	0 (no)
Cc1ccc(C(=O)O)c(N)c1C	0 (no)
COc1ccc(C2C=C(c3ccc(Cl)cc3)N=C3SC=CN32)c(Br)c1 (configuration not stated)	0 (no)
COc1cccc(-c2nnc(COc3ccc(-c4nc5ccc(C)cc5[nH]4)cc3OC)o2)c1	0 (no)
O=C(OCC1OC(n2cc(C(F)(F)F)c(=O)[nH]c2=O)CC1OC(=O)c1ccc([N+](=O)[O-])cc1)c1ccc([N+](=O)[O-])cc1 (configuration not stated)	0 (no)
O=C1/C(=C/c2ccc(O)cc2)CSc2ccc(Cl)cc21	0 (no)
O=C(Nc1cccc(Cl)c1)OCC(COC(=O)Nc1cccc(Cl)c1)(COC(=O)Nc1cccc(Cl)c1)[N+](=O)[O-]	0 (no)
O/N=C1\CCC2CCCCC2C1 (configuration not stated)	0 (no)
N#Cc1ccc(-n2cnc(NC(=O)[C@H]3CCN(C#N)C3)c2)cc1	1 (yes)
COc1cc(Cn2c(-c3ccccc3)cc3c2-c2oncc2CC3)cc(OC)c1	0 (no)
CC(=O)Oc1ccc(C2=Cc3ccc(OC(C)=O)cc3OC2C)cc1 (configuration not stated)	0 (no)
COc1ccc(C2C=C(c3ccc(Cl)c(Cl)c3)N=C3SC(C)=CN32)cc1OC (configuration not stated)	0 (no)
CC(Oc1ccc(Cl)cc1)c1ccccc1 (configuration not stated)	0 (no)
CCCCn1c(=O)[nH]c2c(c1=O)C(c1ccc(Cl)cc1)c1c([nH]c(=O)n(CCCC)c1=O)N2	0 (no)
O=c1ccc2nc(-c3ccccc3)nn(-c3ccccc3)c-2c1	1 (yes)
CCNC(=S)NN	0 (no)
COc1ccc(/C(CS(=O)(=O)c2ccccc2)=N\O)cc1	0 (no)
COc1ccc(-c2cc(/C=C/C(=O)c3ccc(N)cc3)[nH]n2)cc1OC	0 (no)
O=S(=O)(NCCO)c1ccc(OCCOc2ccc(S(=O)(=O)NCCO)cc2)cc1	0 (no)
c1ccc(OCCC[P+](c2ccccc2)(c2ccccc2)c2ccccc2)cc1	0 (no)
COCCOC(=O)NC(=O)Nc1ccc(C(=O)c2ccc(Cl)cc2)cc1	0 (no)

The reported numbers originate from PubChem BioAssay (NCI).
